Origin of values: patent KR20230003036A

# method_description: in vivo
# particulars: rat, po, 1.25 mg/kg
readout: Tmax
Put your answer as a value accompanied by its unit after it.

The compound "COc1cc2nccc(Oc3ccc(NC(=O)NC4CC4)c(Cl)c3)c2cc1C(N)=O" showed Tmax equal to 4 h

* * *

# method_description: in vivo
# particulars: rat, po, 1.25 mg/kg
readout: AUC(0-t) at 24 h (ng·h/mL)
Give a bare numeral; the unit ng·h/mL is implied.

Notebook: COc1cc2nccc(Oc3ccc(NC(=O)NC4CC4)c(Cl)c3)c2cc1C(N)=O [결정형 XI, 렌바티닙 메실레이트, 메실레이트 이수화물] , AUC(0-t) at 24 h read as 22900

* * *

# method_description: in vivo
# particulars: rat, po, 1.25 mg/kg
readout: Cmax (ng/mL)
Report only the number, with the unit ng/mL understood.

The recorded Cmax for "COc1cc2nccc(Oc3ccc(NC(=O)NC4CC4)c(Cl)c3)c2cc1C(N)=O" is 2290
